Ref: patent US20240279318A1

Quick reference for Kd among some binders
TESTED_ON: A*02:06
MEASUREMENT_PROTOCOL: SPR
MEASURE_NAME: Kd (µM)

AS179723 VL1g1VH1g1-N73Y (Fc fusion) QSVLTQPPSASGTPGQRVTISCSGSSNNIGGNYVNWYQQLPGTAPKLLIYDNKNRPSGVPDRFSGSKSGTSASLAISGLQSEDEADYYCASWDDSLSAVVFGGGTKLTVLGGGGSGGGGSGGGGSEVQLVESGGGLVQPGGSLRLSCAASGFTFLNYAMSWVRQAPGKGLEWVSSNSGAGSTYYADSVKGRFTISRDYSKNTLYLQMNSLRAEDTAVYYCAKGTNVGSWSSLHYWGQGTLVTVSS: 0.22
AS179732 VL1g1VH1g1-N73Y (Fc fusion) QSVLTQPPSASGTPGQRVTISCSGSSSNIGGNYVNWYQQLPGTAPKLLIYDNSNRASGVPDRFSGSKSGTSASLAISGLQSEDEADYYCASWDDSLSGAVFGGGTKLTVLGGGGSGGGGSGGGGSEVQLVESGGGLVQPGGSLRLSCAASGFTFLNYAMSWVRQAPGKGLEWVSSNSGAGSTYYADSVKGRFTISRDYSKNTLYLQMNSLRAEDTAVYYCAKGTNVGSWSSLHYWGQGTLVTVSS: 0.22
